RUN_PARAMETERS: 311.15 K; 101.33 kPa; Liquid
± gives the expanded uncertainty stated by the source.
MEASURED_METRIC: mass density
# output: numeric value plus its unit

Consider the reported mass density for these compounds:
CCOCCOCCOCC    889.31 ± 1.1 kg/m3
COCCOC    846.9 ± 0.51 kg/m3
COCCOCCOC    925.82 ± 0.41 kg/m3

Recorded result, ClCCCl , mass density: 1226.53 ± 0.26 kg/m3

----------
The following compounds are listed with their measured mass density values.
RUN_PARAMETERS: 318.15 K; 101.33 kPa; Liquid
State just the number; it will be interpreted in kg/m3.

Consider the reported mass density for these compounds:
COCCOCCOC [2,5,8-trioxanonane]    918.79
ClCCCl [1,2-dichloroethane]    1216.16
CCOCCOCCOCC [diethylene glycol diethyl ether]    882.51

Recorded result, COCCOC [1,2-dimethoxyethane] , mass density: 839.04
